Measured OD450 at 0.0137174 ug/ml of individual entries
# MEASUREMENT_TARGET: T1, human LAG3 expressed on cells (human, UniProt P18627 23-525)
# T1 construct: whole, on cells
# T1 sequence (looked up): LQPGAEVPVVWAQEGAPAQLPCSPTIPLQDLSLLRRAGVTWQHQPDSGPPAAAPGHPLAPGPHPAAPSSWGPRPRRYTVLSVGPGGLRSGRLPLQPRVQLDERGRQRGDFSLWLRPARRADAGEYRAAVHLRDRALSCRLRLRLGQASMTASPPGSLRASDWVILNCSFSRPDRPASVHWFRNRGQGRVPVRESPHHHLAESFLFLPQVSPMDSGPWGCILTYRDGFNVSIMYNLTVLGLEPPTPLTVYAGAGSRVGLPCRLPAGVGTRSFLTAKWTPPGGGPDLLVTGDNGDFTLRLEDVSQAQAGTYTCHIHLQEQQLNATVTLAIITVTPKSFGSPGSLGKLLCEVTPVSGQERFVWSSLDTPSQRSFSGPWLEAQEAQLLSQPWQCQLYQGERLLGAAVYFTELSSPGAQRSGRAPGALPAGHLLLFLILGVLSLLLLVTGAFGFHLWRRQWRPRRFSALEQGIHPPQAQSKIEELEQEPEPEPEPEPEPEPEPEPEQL
# ASSAY_METHOD_TEXT: cell ELISA, 293T-hLAG3 cells
Write the value as a bare number.

As a guide, the following entries are already answered.
{"columns": ["BINDER", "OD450 at 0.0137174 ug/ml"],
 "data": [
  ["sdAb No. 27 (VHH, Fc of the tested form not described; also called sdAb 27; not shown: Fc part implied by anti-human Fc capture and anti-human IgG Fc detection) VHH: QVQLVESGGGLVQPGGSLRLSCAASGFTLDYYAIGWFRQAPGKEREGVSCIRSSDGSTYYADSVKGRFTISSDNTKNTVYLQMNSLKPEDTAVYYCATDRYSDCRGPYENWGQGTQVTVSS", 0.198],
  ["sdAb No. 17-H2 (VHH, Modified sdAb No. 17 (CDR1 DG to EG); not shown: Fc part implied by anti-human IgG1 Fc detection) VHH: QLQLVESGGGLVQPGGSLRLSCAASGLTLEGYAIGWFRQAPGKEREGLACISGSDGSTHYLDSVKGRFTISRDNGKNTMALQMNSLQFGDTAIYYCAARRGSCSGSWTYWGQGTQVTVSS", 0.238],
  ["sdAb No. 27-H2 (VHH, Modified sdAb No. 27 (CDR2 DG to EG); not shown: Fc part implied by anti-human IgG1 Fc detection) VHH: QVQLVESGGGLVQPGGSLRLSCAASGFTLDYYAIGWFRQAPGKEREGVSCIRSSEGSTYYADSVKGRFTISSDNTKNTVYLQMNSLKPEDTAVYYCATDRYSDCRGPYENWGQGTQVTVSS", 0.152]
]}

The recorded OD450 at 0.0137174 ug/ml for entry sdAb No. 17-H3 (VHH, Modified sdAb No. 17 (CDR2 DG to DA); not shown: Fc part implied by anti-human IgG1 Fc detection) VHH: QLQLVESGGGLVQPGGSLRLSCAASGLTLDGYAIGWFRQAPGKEREGLACISGSDASTHYLDSVKGRFTISRDNGKNTMALQMNSLQFGDTAIYYCAARRGSCSGSWTYWGQGTQVTVSS equals 0.208
